Origin of values: PubChem BioAssay (EPA / NIEHS)

Experiment: Tanguay_ZF_120hpf_EYE_legacy: (Legacy) Oregon State University Tanguay Lab 120 Hour Post-fertilization zebrafish Assay for Eye Malformation (AID 2283636);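 further: binary presence or absence of eye malformation scored by brightfield in 120 hpf larvae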
Records with an inconclusive call do not appear. Calls of active or inactive are those of the source. How the source made its calls: active means hit-call score of the fitted dose curve at least 0.9, where 1 is the maximum; inconclusive means response in the unintended direction; inactive means score below 0.9.
# valid calls are active, inactive; nothing else

Worked examples follow.
{"compound": "CC1=NNC(=O)N(/N=C/c2cccnc2)C1", "classification": "inactive"}
{"compound": "C=C(C)[C@H]1Cc2c(ccc3c2O[C@@H]2COc4cc(OC)c(OC)cc4[C@@H]2C3=O)O1", "classification": "inactive"}
{"compound": "Cc1cc(C2CC2)nc(Nc2ccccc2)n1", "classification": "inactive"}
{"compound": "CCOC(=O)CC(SP(=O)(OC)OC)C(=O)OCC (stereo not given)", "classification": "active"}
{"compound": "CCCSP(=O)(OCC)SCCC", "classification": "inactive"}

Identify the outcome logged in this assay for the compound shown: CSC1=N[C@@](C)(c2ccccc2)C(=O)N1Nc1ccccc1
inactive

Ok, now CNC(=O)Oc1cccc2c1OC(C)(C)O2
inactive

Similarly, CON=C(C(=O)OC)c1ccccc1CON=C(C)c1cccc(C(F)(F)F)c1 ?
active

// same read-out, input: C[Si](Cn1cncn1)(c1ccc(F)cc1)c1ccc(F)cc1
active

Next record, please: CN(C)C(=O)Nc1cccc(C(F)(F)F)c1
inactive
